- System: Escherichia coli
- Assay: Antibacterial activity against Escherichia coli by micro-broth dilution method
- Format: functional
This section presents compounds with their documented MIC values.
All answers are understood in µg/mL, so give the number only.

Q: Provide value of MIC for this record tested with Escherichia coli: O=C1C(Cl)=C(Oc2cccc3ccccc23)C(=O)c2ccccc21
Ans: 50

Q: Provide value of MIC for this record tested with Escherichia coli: NC[C@H]1O[C@H](O[C@H]2[C@H](O)[C@@H](O[C@H]3O[C@H](CO)[C@@H](O)[C@H](N)[C@H]3O)[C@H](N)C[C@@H]2N)[C@H](N)C[C@@H]1O
Ans: 0.5

Q: Provide value of MIC for this record tested with Escherichia coli: NC[C@H]1O[C@H](O[C@H]2[C@H](O)[C@@H](O[C@H]3O[C@H](CO)[C@@H](O)[C@H](N)[C@H]3O)[C@H](N)C[C@@H]2N)[C@H](O)[C@@H](O)[C@@H]1O
Ans: 16

Q: Provide value of MIC for this record tested with Escherichia coli: Cc1cc(C)cc(OC2=C(Cl)C(=O)c3ccccc3C2=O)c1
Ans: 50

Q: Provide value of MIC for this record tested with Escherichia coli: O=c1c2oc3ccccc3oc=2c(=O)c2ccccc12
Ans: 50

###

- Tested on: Sporothrix schenckii
- Assay: Antifungal activity against Sporothrix schenckii by broth microdilution method
- Type: functional
Test Readout: log10 of MIC (log10 of the value in mg/L)
Please interpret these as log10 of MIC where MIC is in mg/L.

- Compound: "Cc1ccc(OC2=C(Nc3ccccc3)C(=O)c3ccccc3C2=O)cc1"
  log10 of MIC: 0.19
- Compound: "Cc1cc(C)cc(OC2=C(Cl)C(=O)c3ccccc3C2=O)c1"
  log10 of MIC: 0.19
- Compound: "O=c1c2oc3ccccc3oc=2c(=O)c2ccccc12"
  log10 of MIC: -0.11
- Compound: "O=C1C(Cl)=C(Oc2ccc(Cl)cc2)C(=O)c2ccccc21"
  log10 of MIC: 0.19
- Compound: "Cc1ccc(OC2=C(Cl)C(=O)c3ccccc3C2=O)cc1"
  log10 of MIC: -0.11

Q: I am curious: what log10 of MIC value has been reported for Cc1ccc(OC2=C(Sc3ccc(C)cc3)C(=O)c3ccccc3C2=O)cc1 ?
Ans: 0.49

Q: I am curious: what log10 of MIC value has been reported for OC(Cn1cncn1)(Cn1cncn1)c1ccc(F)cc1F [FLUCONAZOLE] ?
Ans: 0.30

Q: I am curious: what log10 of MIC value has been reported for O=C1C(Cl)=C(Oc2ccccc2)C(=O)c2ccccc21 ?
Ans: 0.49

Q: I am curious: what log10 of MIC value has been reported for O=C1C(Cl)=C(Nc2ccc(O)cc2)C(=O)c2ccccc21 ?
Ans: 0.19

Q: I am curious: what log10 of MIC value has been reported for O=C1C(Cl)=C(Oc2cccc3ccccc23)C(=O)c2ccccc21 ?
Ans: 0.19

Q: I am curious: what log10 of MIC value has been reported for COc1ccc(OC2=C(Cl)C(=O)c3ccccc3C2=O)cc1 ?
Ans: 0.19

Q: I am curious: what log10 of MIC value has been reported for O=C1C(Cl)=C(Oc2ccccc2OC2=C(Cl)C(=O)c3ccccc3C2=O)C(=O)c2ccccc21 ?
Ans: 1.40

Q: I am curious: what log10 of MIC value has been reported for Cc1ccc(OC2=C(Sc3ccccc3)C(=O)c3ccccc3C2=O)cc1 ?
Ans: 0.19

###

- Tested on: Staphylococcus aureus
- Assay: Antibacterial activity against Staphylococcus aureus ATCC 25923 by micro-broth dilution method
- Format: functional
Test Readout: MIC (µg/mL)
All answers are understood in µg/mL, so give the number only.

Here is how some compounds turned out for MIC.
- Structure Smiles: "O=c1c2oc3ccccc3oc=2c(=O)c2ccccc12"
  Assay Result: 25
- Structure Smiles: "NC[C@H]1O[C@H](O[C@H]2[C@H](O)[C@@H](O[C@H]3O[C@H](CO)[C@@H](O)[C@H](N)[C@H]3O)[C@H](N)C[C@@H]2N)[C@H](N)C[C@@H]1O"
  Assay Result: 0.25
- Structure Smiles: "O=C1C(Cl)=C(Oc2cccc3ccccc23)C(=O)c2ccccc21"
  Assay Result: 25
- Structure Smiles: "O=C1C(Cl)=C(Oc2ccccc2)C(=O)c2ccccc21"
  Assay Result: 50

Q: I am curious: what MIC value has been reported for Cc1ccc(OC2=C(Sc3ccccc3)C(=O)c3ccccc3C2=O)cc1 ?
Ans: 25

###

- Test system: Candida albicans
- Assay: Antifungal activity against Candida albicans by broth microdilution method
- Format: functional
Test Readout: log10 MIC (log10 of the value in µg/mL)
Please interpret these as log10 of MIC where MIC is in µg/mL.

Q: I am curious: what log10 MIC value has been reported for C[C@@H]1[C@H](O)[C@@H](C)/C=C/C=C/C=C/C=C/C=C/C=C/C=C/[C@H](O[C@@H]2O[C@H](C)[C@@H](O)[C@H](N)[C@@H]2O)C[C@@H]2O[C@](O)(C[C@@H](O)C[C@@H](O)[C@H](O)CC[C@@H](O)C[C@@H](O)CC(=O)O[C@H]1C)C[C@H](O)[C@H]2C(=O)O ?
Ans: -0.41

Q: I am curious: what log10 MIC value has been reported for Clc1ccc(COC(Cn2ccnc2)c2ccc(Cl)cc2Cl)c(Cl)c1 (stereo not drawn) ?
Ans: 1.40

Q: I am curious: what log10 MIC value has been reported for O=c1c2oc3ccccc3oc=2c(=O)c2ccccc12 ?
Ans: 0.80

Q: I am curious: what log10 MIC value has been reported for COc1ccc(OC2=C(Cl)C(=O)c3ccccc3C2=O)cc1 ?
Ans: 1.10

Q: I am curious: what log10 MIC value has been reported for Cc1ccc(OC2=C(Cl)C(=O)c3ccccc3C2=O)cc1 ?
Ans: 0.80

Q: I am curious: what log10 MIC value has been reported for O=C1C(Cl)=C(Oc2ccccc2OC2=C(Cl)C(=O)c3ccccc3C2=O)C(=O)c2ccccc21 ?
Ans: 1.70

Q: I am curious: what log10 MIC value has been reported for Cc1ccc(OC2=C(Nc3ccccc3)C(=O)c3ccccc3C2=O)cc1 ?
Ans: 1.10

Q: I am curious: what log10 MIC value has been reported for O=C1C=C(Sc2ccccc2)C(=O)c2ccccc21 ?
Ans: 1.10

###

- System: Staphylococcus aureus
- Assay: Antibacterial activity against Staphylococcus aureus ATCC 25923 by micro-broth dilution method
- Assay type: functional
Test Readout: MIC
Show the value, then the unit it is measured in.

Here is how some compounds turned out for MIC.
- Compound: "Cc1ccc(OC2=C(Nc3ccccc3)C(=O)c3ccccc3C2=O)cc1"
  Test Target: "Staphylococcus aureus"
  MIC: "50 µg/mL"
- Compound: "NCC[C@H](O)C(=O)N[C@@H]1C[C@H](N)[C@@H](O[C@H]2O[C@H](CN)[C@@H](O)[C@H](O)[C@H]2O)[C@H](O)[C@H]1O[C@H]1O[C@H](CO)[C@@H](O)[C@H](N)[C@H]1O [AMIKACIN]"
  Test Target: "Staphylococcus aureus"
  MIC: "16 µg/mL"
- Compound: "Cc1cc(C)cc(OC2=C(Cl)C(=O)c3ccccc3C2=O)c1"
  Test Target: "Staphylococcus aureus"
  MIC: "25 µg/mL"
- Compound: "O=C1C(Cl)=C(Oc2ccc(Cl)cc2)C(=O)c2ccccc21"
  Test Target: "Staphylococcus aureus"
  MIC: "50 µg/mL"
- Compound: "COc1ccc(OC2=C(Cl)C(=O)c3ccccc3C2=O)cc1"
  Test Target: "Staphylococcus aureus"
  MIC: "50 µg/mL"
- Compound: "NC[C@H]1O[C@H](O[C@H]2[C@H](O)[C@@H](O[C@H]3O[C@H](CO)[C@@H](O)[C@H](N)[C@H]3O)[C@H](N)C[C@@H]2N)[C@H](O)[C@@H](O)[C@@H]1O [KANAMYCIN]"
  Test Target: "Staphylococcus aureus"
  MIC: "2 µg/mL"

Q: I am curious: what MIC value has been reported for Cc1ccc(OC2=C(Cl)C(=O)c3ccccc3C2=O)cc1 ?
Ans: 12.5 µg/mL

Q: I am curious: what MIC value has been reported for Cc1ccc(OC2=C(Sc3ccc(C)cc3)C(=O)c3ccccc3C2=O)cc1 ?
Ans: 12.5 µg/mL

###

This section presents compounds with their documented MIC values.
- System: Candida albicans
- Assay: Antifungal activity against Candida albicans by broth microdilution method
- Format: functional
All answers are understood in µg/mL, so give the number only.

- Structure Smiles: "Cc1cc(C)cc(OC2=C(Cl)C(=O)c3ccccc3C2=O)c1"
  Units: "µg/mL"
  MIC: 12.5
- Structure Smiles: "Cc1ccc(OC2=C(Sc3ccc(C)cc3)C(=O)c3ccccc3C2=O)cc1"
  Units: "µg/mL"
  MIC: 25
- Structure Smiles: "Cc1cc2c(cc1OC1=C(O)C(=O)c3ccccc3C1=O)C(=O)c1ccccc1C2=O"
  Units: "µg/mL"
  MIC: 4.88
- Structure Smiles: "Cc1ccc(OC2=C(Sc3ccccc3)C(=O)c3ccccc3C2=O)cc1"
  Units: "µg/mL"
  MIC: 25
- Structure Smiles: "O=C1C(Cl)=C(Oc2cccc3ccccc23)C(=O)c2ccccc21"
  Units: "µg/mL"
  MIC: 12.5

Q: I am curious: what MIC value has been reported for O=C1C(Cl)=C(Oc2ccc(Cl)cc2)C(=O)c2ccccc21 ?
Ans: 12.5

Q: I am curious: what MIC value has been reported for OC(Cn1cncn1)(Cn1cncn1)c1ccc(F)cc1F ?
Ans: 1

Q: I am curious: what MIC value has been reported for O=C1C(Cl)=C(Oc2ccccc2)C(=O)c2ccccc21 ?
Ans: 12.5

Q: I am curious: what MIC value has been reported for O=C1C(Cl)=C(Nc2ccc(O)cc2)C(=O)c2ccccc21 ?
Ans: 1.56
